All figures here come from patent US4426382A.

- System: spontaneously hypertensive rats
- measurementProtocol: antihypertensive activity: blood pressure after oral administration to conscious spontaneously hypertensive rats
- Type: in vivo
- measurementParameters: dose 30 mg/kg oral, male spontaneously hypertensive rats
Counter-ions that a name gives are not always drawn.
Cut-off -40 mmHg on Δmax, maximum change in blood pressure after administration: below means 1 (yes), at or above means 0 (no).

compound="CC=CC(=O)N1CCCN(c2nc(N)c3cc(OC)c(OC)cc3n2)CC1 [9 hydrochloride hydrate]" grouplabel="0 (no)"
compound="COc1cc2nc(N3CCN(C(=O)c4ccc(OCc5ccccc5)cc4)CC3)nc(N)c2cc1OC [14 hydrochloride dihydrate]" grouplabel="0 (no)"
compound="COc1cc2nc(N3CCN(C(=O)C4(c5ccccc5)CC4)CC3)nc(N)c2cc1OC [33 hydrochloride hydrate]" grouplabel="1 (yes)"
compound="COc1cc2nc(N3CCN(C(=O)c4ccco4)CC3)nc(N)c2cc1OC [prazosin hydrochloride, prazosin, reference compound]" grouplabel="1 (yes)"
compound="COc1cc2nc(N3CCN(C(=O)C=C4CCCC4)CC3)nc(N)c2cc1OC [32 hydrochloride hydrate]" grouplabel="1 (yes)"
compound="C=CCCC(=O)N1CCN(c2nc(N)c3cc(OC)c(OC)cc3n2)CC1 [Compound No. 6]" grouplabel="1 (yes)"
compound="COc1cc2nc(N3CCN(C(=O)c4ccc(OCc5ccccc5)c(OC)c4)CC3)nc(N)c2cc1OC [94 hydrochloride hemihydrate]" grouplabel="0 (no)"
compound="C=C(C)C(=O)N1CCN(c2nc(N)c3cc(OC)c(OC)cc3n2)CC1 [Compound No. 2]" grouplabel="0 (no)"
compound="COc1cc2nc(N3CCN(C(=O)CCc4ccccc4)CC3)nc(N)c2cc1OC [29 hydrochloride hydrate]" grouplabel="1 (yes)"
compound="COc1cc2nc(N3CCN(C(=O)Cc4ccccc4)CC3)nc(N)c2cc1OC [28 hydrochloride hydrate]" grouplabel="1 (yes)"
compound="COc1cc2nc(N3CCN(C(=O)c4ccc(OCc5ccccc5)c(Cl)c4)CC3)nc(N)c2cc1OC [98 hydrochloride hemihydrate]" grouplabel="0 (no)"
compound="CCC=CCC(=O)N1CCN(c2nc(N)c3cc(OC)c(OC)cc3n2)CC1 [Compound No. 7]" grouplabel="0 (no)"
compound="COc1cc2nc(N3CCN(C(=O)C=C(C)C)CC3)nc(N)c2cc1OC [Compound No. 4]" grouplabel="0 (no)"
compound="CC=C(C)C(=O)N1CCN(c2nc(N)c3cc(OC)c(OC)cc3n2)CC1 [Compound No. 3]" grouplabel="0 (no)"

---

- Test system: spontaneously hypertensive rats
- measurementProtocol: antihypertensive activity: blood pressure after oral administration to conscious spontaneously hypertensive rats
- Format: in vivo
- measurementParameters: dose 30 mg/kg oral, male spontaneously hypertensive rats
Where a name gives a salt, the structure may show the parent alone.
measuredEndpoint: Δmax, maximum change in blood pressure after administration (mmHg)

compound="COc1cc2nc(N3CCN(C(=O)c4ccc(OC(C)c5ccccc5)cc4)CC3)nc(N)c2cc1OC (centres unmarked) [103 hydrochloride sesquihydrate]" unitofmeasure=mmHg numericresult=-41
compound="COc1cc2nc(N3CCN(C(=O)COc4ccccc4)CC3)nc(N)c2cc1OC [27 hydrochloride hydrate]" unitofmeasure=mmHg numericresult=-40
compound="CC=CC(=O)N1CCN(c2nc(N)c3cc(OC)c(OC)cc3n2)CC1 [1 hydrochloride hydrate]" unitofmeasure=mmHg numericresult=-40
compound=CCCC=CC(=O)N1CCN(c2nc(N)c3cc(OC)c(OC)cc3n2)CC1 unitofmeasure=mmHg numericresult=-40
compound="COc1cc2nc(N3CCN(C(=O)C=C4CCCCC4)CC3)nc(N)c2cc1OC [31 hydrochloride hydrate]" unitofmeasure=mmHg numericresult=-40
